The measured values listed here are drawn from ChEMBL document CHEMBL4219107.

assay: Cytotoxicity against mouse RAW264.7 cells after 48 hrs by MTT assay; format: cell-based; details: read-out: LC50
Listed next: entries and their corresponding CC50 at 48 h.

>  <Line notation>
CCN(CC)CCCOc1ccc(C2=C(c3ccc(F)cc3)C(=O)N(CCC(O)(c3ccccc3)c3ccccc3)C2=O)cc1

>  <Measure unit>
µM

>  <Value qualifier>
=

>  <CC50 at 48 h>
37.6

$$$$
>  <Line notation>
O=C1C(c2ccc(O)cc2)=C(c2ccc(F)cc2)C(=O)N1CCCNS(=O)(=O)c1ccc(OC(F)(F)F)cc1

>  <Measure unit>
µM

>  <Value qualifier>
=

>  <CC50 at 48 h>
41.2

$$$$
>  <Line notation>
CCc1ccc(S(=O)(=O)NCCN2C(=O)C(c3ccc(O)cc3)=C(c3ccc(F)cc3)C2=O)cc1

>  <Measure unit>
µM

>  <Value qualifier>
>

>  <CC50 at 48 h>
100

$$$$
>  <Line notation>
CCc1ccc(S(=O)(=O)NCCCCN2C(=O)C(c3ccc(F)cc3)=C(c3ccc(OCC(=O)NCC(=O)NCC(=O)O)cc3)C2=O)cc1

>  <Measure unit>
µM

>  <Value qualifier>
>

>  <CC50 at 48 h>
100

$$$$
>  <Line notation>
Cc1ccc(S(=O)(=O)NCCCCN2C(=O)C(c3ccc(F)cc3)=C(c3ccc(OCC(=O)NCC(=O)NCC(=O)O)cc3)C2=O)cc1

>  <Measure unit>
µM

>  <Value qualifier>
>

>  <CC50 at 48 h>
100

$$$$
>  <Line notation>
CCc1ccc(S(=O)(=O)NCCCN2C(=O)C(c3ccc(O)cc3)=C(c3ccc(F)cc3)C2=O)cc1

>  <Measure unit>
µM

>  <Value qualifier>
=

>  <CC50 at 48 h>
17.2

$$$$
>  <Line notation>
O=C1C(c2ccc(O)cc2)=C(c2ccc(F)cc2)C(=O)N1CCC(O)(c1ccccc1)c1ccccc1

>  <Measure unit>
µM

>  <Value qualifier>
>

>  <CC50 at 48 h>
100

$$$$
>  <Line notation>
CCN(CC)CCOc1ccc(C2=C(c3ccc(F)cc3)C(=O)N(CCC(O)(c3ccccc3)c3ccccc3)C2=O)cc1

>  <Measure unit>
µM

>  <Value qualifier>
=

>  <CC50 at 48 h>
32.7

$$$$
>  <Line notation>
O=C1C(c2ccc(O)cc2)=C(c2ccc(F)cc2)C(=O)N1CCCNS(=O)(=O)c1ccc(C(F)(F)F)cc1

>  <Measure unit>
µM

>  <Value qualifier>
=

>  <CC50 at 48 h>
34.3

$$$$
>  <Line notation>
CCN(CC)CCCCOc1ccc(C2=C(c3ccc(F)cc3)C(=O)N(CCC(O)(c3ccccc3)c3ccccc3)C2=O)cc1

>  <Measure unit>
µM

>  <Value qualifier>
=

>  <CC50 at 48 h>
43.2

$$$$
>  <Line notation>
O=C1[C@H](CC[C@H](O)c2ccc(F)cc2)[C@@H](c2ccc(O)cc2)N1c1ccc(F)cc1

>  <Measure unit>
µM

>  <Value qualifier>
=

>  <CC50 at 48 h>
44.2

$$$$

###

target: NPC1-like intracellular cholesterol transporter 1 (Homo sapiens); assay: Inhibition of NPC1L1 in human Caco2 cells assessed as decrease in cholesterol uptake at 100 uM preincubated for 24 hrs followed by stigmosterol substrate addition measured after 24 hrs by HPLC method; assay type: cell-based
Calls of active or inactive are those of the source. The calls are words filed in the database; no cut-off is given here.
Classes used: TRUE (active), FALSE (inactive)

>  <Line notation>
CCc1ccc(S(=O)(=O)NCCCCN2C(=O)C(c3ccc(F)cc3)=C(c3ccc(OCC(=O)NCC(=O)NCC(=O)O)cc3)C2=O)cc1

>  <Assigned label>
TRUE

$$$$
>  <Line notation>
O=C1C(c2ccc(O)cc2)=C(c2ccc(F)cc2)C(=O)N1CCCNS(=O)(=O)c1ccc(OC(F)(F)F)cc1

>  <Assigned label>
TRUE

$$$$
>  <Line notation>
CCc1ccc(S(=O)(=O)NCCN2C(=O)C(c3ccc(O)cc3)=C(c3ccc(F)cc3)C2=O)cc1

>  <Assigned label>
TRUE

$$$$
>  <Line notation>
O=C1C(c2ccc(O)cc2)=C(c2ccc(F)cc2)C(=O)N1CCCNS(=O)(=O)c1ccc(C(F)(F)F)cc1

>  <Assigned label>
TRUE

$$$$
>  <Line notation>
Cc1ccc(S(=O)(=O)NCCCCN2C(=O)C(c3ccc(F)cc3)=C(c3ccc(OCC(=O)NCC(=O)NCC(=O)O)cc3)C2=O)cc1

>  <Assigned label>
TRUE

$$$$
>  <Line notation>
O=C1C(c2ccc(O)cc2)=C(c2ccc(F)cc2)C(=O)N1CCC(O)(c1ccccc1)c1ccccc1

>  <Assigned label>
TRUE

$$$$
>  <Line notation>
O=C1C(c2ccc(F)cc2)=C(c2ccc(OCCS(=O)(=O)O)cc2)C(=O)N1CCC(O)(c1ccccc1)c1ccccc1

>  <Assigned label>
FALSE

$$$$
>  <Line notation>
O=C1C(c2ccc(F)cc2)=C(c2ccc(OCCCCS(=O)(=O)O)cc2)C(=O)N1CCC(O)(c1ccccc1)c1ccccc1

>  <Assigned label>
FALSE

$$$$
>  <Line notation>
CCc1ccc(S(=O)(=O)NCCCN2C(=O)C(c3ccc(O)cc3)=C(c3ccc(F)cc3)C2=O)cc1

>  <Assigned label>
TRUE

$$$$
>  <Line notation>
O=C1C(c2ccc(F)cc2)=C(c2ccc(OCCCS(=O)(=O)O)cc2)C(=O)N1CCC(O)(c1ccccc1)c1ccccc1

>  <Assigned label>
FALSE

$$$$

###

# Lookup of reported CC50 at 48 h keyed by entry
assay: Cytotoxicity against HEK293 cells after 48 hrs by MTT assay; assay type: cell-based; settings: human, read-out: LC50

>  <Line notation>
Cc1ccc(S(=O)(=O)NCCCCN2C(=O)C(c3ccc(F)cc3)=C(c3ccc(OCC(=O)NCC(=O)NCC(=O)O)cc3)C2=O)cc1

>  <Measure unit>
µM

>  <Value qualifier>
>

>  <CC50 at 48 h>
100

$$$$
>  <Line notation>
CCN(CC)CCCCOc1ccc(C2=C(c3ccc(F)cc3)C(=O)N(CCC(O)(c3ccccc3)c3ccccc3)C2=O)cc1

>  <Measure unit>
µM

>  <Value qualifier>
=

>  <CC50 at 48 h>
47.3

$$$$
>  <Line notation>
O=C1[C@H](CC[C@H](O)c2ccc(F)cc2)[C@@H](c2ccc(O)cc2)N1c1ccc(F)cc1

>  <Measure unit>
µM

>  <Value qualifier>
=

>  <CC50 at 48 h>
57.6

$$$$
>  <Line notation>
O=C1C(c2ccc(O)cc2)=C(c2ccc(F)cc2)C(=O)N1CCCNS(=O)(=O)c1ccc(C(F)(F)F)cc1

>  <Measure unit>
µM

>  <Value qualifier>
=

>  <CC50 at 48 h>
19.7

$$$$
>  <Line notation>
O=C1C(c2ccc(O)cc2)=C(c2ccc(F)cc2)C(=O)N1CCC(O)(c1ccccc1)c1ccccc1

>  <Measure unit>
µM

>  <Value qualifier>
>

>  <CC50 at 48 h>
100

$$$$
>  <Line notation>
CCc1ccc(S(=O)(=O)NCCN2C(=O)C(c3ccc(O)cc3)=C(c3ccc(F)cc3)C2=O)cc1

>  <Measure unit>
µM

>  <Value qualifier>
=

>  <CC50 at 48 h>
80.4

$$$$
>  <Line notation>
CCN(CC)CCOc1ccc(C2=C(c3ccc(F)cc3)C(=O)N(CCC(O)(c3ccccc3)c3ccccc3)C2=O)cc1

>  <Measure unit>
µM

>  <Value qualifier>
=

>  <CC50 at 48 h>
31.5

$$$$
>  <Line notation>
CCN(CC)CCCOc1ccc(C2=C(c3ccc(F)cc3)C(=O)N(CCC(O)(c3ccccc3)c3ccccc3)C2=O)cc1

>  <Measure unit>
µM

>  <Value qualifier>
=

>  <CC50 at 48 h>
32.7

$$$$

###

assay: Octanol-water partition coefficient, log P of the compound measured after 4 hrs by HPLC analysis; assay type: physicochemical
Catalogue of logP at 4 h values

>  <Line notation>
Cc1ccc(S(=O)(=O)NCCCCN2C(=O)C(c3ccc(F)cc3)=C(c3ccc(OCC(=O)NCC(=O)NCC(=O)O)cc3)C2=O)cc1

>  <logP at 4 h>
2 to 4

$$$$
>  <Line notation>
O=C1C(c2ccc(O)cc2)=C(c2ccc(F)cc2)C(=O)N1CCC(O)(c1ccccc1)c1ccccc1

>  <logP at 4 h>
2 to 4

$$$$
>  <Line notation>
CCN(CC)CCCOc1ccc(C2=C(c3ccc(F)cc3)C(=O)N(CCC(O)(c3ccccc3)c3ccccc3)C2=O)cc1

>  <logP at 4 h>
> 5

$$$$
>  <Line notation>
CCN(CC)CCOc1ccc(C2=C(c3ccc(F)cc3)C(=O)N(CCC(O)(c3ccccc3)c3ccccc3)C2=O)cc1

>  <logP at 4 h>
> 5

$$$$
>  <Line notation>
CCc1ccc(S(=O)(=O)NCCCCN2C(=O)C(c3ccc(F)cc3)=C(c3ccc(OCC(=O)NCC(=O)NCC(=O)O)cc3)C2=O)cc1

>  <logP at 4 h>
2 to 4

$$$$
>  <Line notation>
CCc1ccc(S(=O)(=O)NCCCN2C(=O)C(c3ccc(O)cc3)=C(c3ccc(F)cc3)C2=O)cc1

>  <logP at 4 h>
2 to 4

$$$$
>  <Line notation>
CCc1ccc(S(=O)(=O)NCCN2C(=O)C(c3ccc(O)cc3)=C(c3ccc(F)cc3)C2=O)cc1

>  <logP at 4 h>
2 to 4

$$$$
>  <Line notation>
O=C1C(c2ccc(O)cc2)=C(c2ccc(F)cc2)C(=O)N1CCCNS(=O)(=O)c1ccc(OC(F)(F)F)cc1

>  <logP at 4 h>
2 to 4

$$$$
>  <Line notation>
CCN(CC)CCCCOc1ccc(C2=C(c3ccc(F)cc3)C(=O)N(CCC(O)(c3ccccc3)c3ccccc3)C2=O)cc1

>  <logP at 4 h>
> 5

$$$$
>  <Line notation>
O=C1C(c2ccc(O)cc2)=C(c2ccc(F)cc2)C(=O)N1CCCNS(=O)(=O)c1ccc(C(F)(F)F)cc1

>  <logP at 4 h>
2 to 4

$$$$
